Target: T1, Peptide G (rat PAR-2), N-terminal biotinylated (Rat (Rattus norvegicus), N-terminal biotin via G4S linker)
T1 construct: also called Peptide G N-Term
T1 peptide: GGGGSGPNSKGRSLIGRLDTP
Assay: SPR, peptide immobilized
Entries and their Kd
Give your result in nM as a bare value.

See these solved cases before continuing.
binder="H4H579P (antibody, human IgG4, V domains shown, also called H1H579P variable regions) VH: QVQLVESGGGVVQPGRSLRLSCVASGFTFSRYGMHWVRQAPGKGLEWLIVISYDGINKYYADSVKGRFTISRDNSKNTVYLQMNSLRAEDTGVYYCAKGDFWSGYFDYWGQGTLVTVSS VL: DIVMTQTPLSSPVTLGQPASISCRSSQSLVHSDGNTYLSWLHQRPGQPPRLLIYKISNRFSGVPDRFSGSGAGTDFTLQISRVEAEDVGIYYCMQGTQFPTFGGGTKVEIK" assay_value=1.16
binder="H4H584P (antibody, human IgG4, V domains shown, also called H1H584P variable regions) VH: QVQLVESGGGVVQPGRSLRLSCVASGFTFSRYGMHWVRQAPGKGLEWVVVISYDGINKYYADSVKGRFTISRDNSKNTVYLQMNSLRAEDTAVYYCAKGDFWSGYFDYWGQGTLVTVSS VL: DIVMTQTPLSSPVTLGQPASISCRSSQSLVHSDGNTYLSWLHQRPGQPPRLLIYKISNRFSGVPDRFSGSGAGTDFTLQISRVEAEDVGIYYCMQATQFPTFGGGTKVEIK" assay_value=1.39
binder="H4H585P (antibody, human IgG4, V domains shown, also called H1H585P variable regions) VH: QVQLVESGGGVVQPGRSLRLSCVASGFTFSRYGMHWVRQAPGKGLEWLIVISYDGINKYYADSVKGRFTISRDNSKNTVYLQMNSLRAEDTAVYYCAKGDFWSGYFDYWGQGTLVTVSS VL: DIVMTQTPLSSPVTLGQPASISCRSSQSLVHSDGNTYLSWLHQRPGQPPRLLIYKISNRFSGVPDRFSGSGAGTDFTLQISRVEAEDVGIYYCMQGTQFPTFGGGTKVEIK" assay_value=1.36

Record H4H583P (antibody, human IgG4, V domains shown, also called H1H583P variable regions) VH: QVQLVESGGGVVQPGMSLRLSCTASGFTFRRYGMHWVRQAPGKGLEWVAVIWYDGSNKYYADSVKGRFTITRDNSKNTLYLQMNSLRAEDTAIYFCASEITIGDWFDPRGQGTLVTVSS VL: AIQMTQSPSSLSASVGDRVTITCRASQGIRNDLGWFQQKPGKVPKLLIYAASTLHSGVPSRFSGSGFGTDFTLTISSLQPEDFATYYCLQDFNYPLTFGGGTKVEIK , field Kd: 1.49
